IC50 values for the compounds below.
Biological target: CRBN/DDB1 (Homo sapiens (Human))
Sequence (Q96SW2 whole entry, species assumed): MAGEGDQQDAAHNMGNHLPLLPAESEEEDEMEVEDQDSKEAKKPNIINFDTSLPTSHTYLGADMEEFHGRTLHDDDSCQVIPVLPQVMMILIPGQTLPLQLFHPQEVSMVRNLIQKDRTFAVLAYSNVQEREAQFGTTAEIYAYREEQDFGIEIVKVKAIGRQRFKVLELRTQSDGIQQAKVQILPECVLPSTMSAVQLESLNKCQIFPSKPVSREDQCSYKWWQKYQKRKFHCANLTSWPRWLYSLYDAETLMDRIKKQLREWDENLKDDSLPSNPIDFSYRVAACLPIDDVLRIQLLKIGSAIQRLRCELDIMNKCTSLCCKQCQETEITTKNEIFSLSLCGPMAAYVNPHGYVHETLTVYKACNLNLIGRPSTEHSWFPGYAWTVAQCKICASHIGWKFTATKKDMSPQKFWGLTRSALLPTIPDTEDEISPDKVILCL
Sequence (Q16531 whole entry partner, species assumed): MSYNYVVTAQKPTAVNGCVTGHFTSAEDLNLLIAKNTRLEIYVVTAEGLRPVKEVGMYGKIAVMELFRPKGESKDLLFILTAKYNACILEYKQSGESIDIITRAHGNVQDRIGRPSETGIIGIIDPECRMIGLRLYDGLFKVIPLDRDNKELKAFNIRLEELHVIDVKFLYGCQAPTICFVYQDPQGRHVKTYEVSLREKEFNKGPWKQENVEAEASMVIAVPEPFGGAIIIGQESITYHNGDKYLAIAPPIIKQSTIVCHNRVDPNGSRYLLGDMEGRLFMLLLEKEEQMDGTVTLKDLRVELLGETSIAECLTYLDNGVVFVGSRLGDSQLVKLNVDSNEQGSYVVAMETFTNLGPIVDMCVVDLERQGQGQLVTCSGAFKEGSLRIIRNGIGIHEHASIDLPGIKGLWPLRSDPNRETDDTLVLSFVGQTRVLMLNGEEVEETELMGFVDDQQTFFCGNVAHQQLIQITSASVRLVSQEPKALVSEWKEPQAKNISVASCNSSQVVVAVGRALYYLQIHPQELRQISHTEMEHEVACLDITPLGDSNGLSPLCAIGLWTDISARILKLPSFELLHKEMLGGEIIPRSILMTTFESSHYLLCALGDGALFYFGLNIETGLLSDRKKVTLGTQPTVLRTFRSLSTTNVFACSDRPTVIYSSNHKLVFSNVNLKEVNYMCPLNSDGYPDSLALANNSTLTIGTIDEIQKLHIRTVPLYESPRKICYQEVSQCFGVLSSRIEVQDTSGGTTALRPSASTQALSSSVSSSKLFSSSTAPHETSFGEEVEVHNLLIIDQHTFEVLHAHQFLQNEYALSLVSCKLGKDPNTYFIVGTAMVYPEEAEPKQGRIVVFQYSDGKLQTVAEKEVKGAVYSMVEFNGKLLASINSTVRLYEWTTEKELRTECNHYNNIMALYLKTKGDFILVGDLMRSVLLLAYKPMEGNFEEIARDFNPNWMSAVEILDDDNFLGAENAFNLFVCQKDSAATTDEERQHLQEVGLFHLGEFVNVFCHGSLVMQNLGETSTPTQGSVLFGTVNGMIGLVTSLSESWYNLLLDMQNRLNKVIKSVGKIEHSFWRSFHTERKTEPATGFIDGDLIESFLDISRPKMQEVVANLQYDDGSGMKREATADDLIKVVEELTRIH
Settings: His tagged CRBN+DDB1, Cy5-labeled Thalidomide probe, one hour; read-out: CRBN HTRF IC50
measured-attribute: IC50

- compound: "COc1cc(N2CCC(CN3CC[C@]4(c5ccc(N[C@@H]6CCC(=O)NC6=O)cc5)[C@H](C3)C4(F)F)CC2)ccc1[C@@H]1c2ccc(O)cc2CC[C@@H]1c1ccccc1"
  test-target: "CRBN/DDB1 (Homo sapiens (Human))"
  value-measured: "> 5 µM"
- compound: "O=C1CC[C@H](N2Cc3cc4c(cc3C2=O)OC[C@H]2CN(C[C@H]3COC5(CCN(c6ccc([C@H]7c8ccc(O)cc8CC[C@H]7c7ccccc7)cc6)CC5)C3)CCN42)C(=O)N1 (single isomer, unassigned)"
  test-target: "CRBN/DDB1 (Homo sapiens (Human))"
  value-measured: "0.05 to 0.5 µM"
- compound: "O=C1CC[C@H](N2Cc3cc4c(cc3C2=O)OC[C@@H]2CN(C[C@H]3COC5(C3)CN(c3ccc([C@@H]6c7ccc(O)cc7CC[C@@H]6c6ccccc6)cc3)C5)CCN42)C(=O)N1"
  test-target: "CRBN/DDB1 (Homo sapiens (Human))"
  value-measured: "0.05 to 0.5 µM"
- compound: "COc1cc(N2CCC3(CC2)CC(CN2CCN4c5ccc6c(c5OC[C@H]4C2)CN([C@H]2CCC(=O)NC2=O)C6=O)CO3)ccc1[C@@H]1c2ccc(O)cc2CC[C@@H]1c1ccccc1 (some centres unmarked)"
  test-target: "CRBN/DDB1 (Homo sapiens (Human))"
  value-measured: "< 0.05 µM"
- compound: "O=C1CC[C@H](N2Cc3c(ccc4c3OC[C@H]3CN(CC5CC6(CCN(c7ccc([C@H]8c9ccc(O)cc9CC[C@H]8c8ccccc8)cn7)CC6)C5)CCN43)C2=O)C(=O)N1 (single isomer, unassigned)"
  test-target: "CRBN/DDB1 (Homo sapiens (Human))"
  value-measured: "0.05 to 0.5 µM"
